- test_system: Troponin I, cardiac muscle (Homo sapiens) + Troponin T, cardiac muscle (Homo sapiens) + Troponin C, slow skeletal and cardiac muscles (Homo sapiens) (UniProt P19429+P45379+P63316)
- experiment_description: cardiac RTF calcium sensitivity activators, confirmation, biochemical, IANBD-TnC fluorescence, triplicate (AID 504383);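 further: 0% = DMSO at 0.472 mM calcium and 100% = DMSO at 2.9 mM calcium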
- test_parameters: IANBD-labeled cardiac RTF, Ca2+ sensitivity fluorescence; at 7.2 µM; hits give high values; scaled from EC20 to saturating calcium; tested at EC20 calcium, 0.472 mM
About 1,200 (48%) of roughly 2,500 compounds were called active. So high a share suggests a set chosen from earlier hits. The list shows a part of the results.

| smiles_str | activation (%) |
| --- | --- |
| O=C(O)c1cc(-c2ccc(/C=C3/SC(=S)N(Cc4ccccc4)C3=O)o2)ccc1Cl | 5.81 |
| O=c1oc2c3c4c(cc2c(C(F)(F)F)c1CCN1CCOCC1)CCCN4CCC3 | 4.32 |
| Cc1nn(Cc2c(F)c(F)c(F)c(F)c2F)c(C)c1NC(=O)c1nn(C)c(C)c1Br | 9.42 |
| O=C(O)CN1C(=O)/C(=C/c2ccc(SCc3ccccc3)o2)SC1=S | 39.7 |
